Molecular target: hERG (KCNH2) (Homo sapiens, UniProt Q12809)
Sequence (Q12809 whole entry): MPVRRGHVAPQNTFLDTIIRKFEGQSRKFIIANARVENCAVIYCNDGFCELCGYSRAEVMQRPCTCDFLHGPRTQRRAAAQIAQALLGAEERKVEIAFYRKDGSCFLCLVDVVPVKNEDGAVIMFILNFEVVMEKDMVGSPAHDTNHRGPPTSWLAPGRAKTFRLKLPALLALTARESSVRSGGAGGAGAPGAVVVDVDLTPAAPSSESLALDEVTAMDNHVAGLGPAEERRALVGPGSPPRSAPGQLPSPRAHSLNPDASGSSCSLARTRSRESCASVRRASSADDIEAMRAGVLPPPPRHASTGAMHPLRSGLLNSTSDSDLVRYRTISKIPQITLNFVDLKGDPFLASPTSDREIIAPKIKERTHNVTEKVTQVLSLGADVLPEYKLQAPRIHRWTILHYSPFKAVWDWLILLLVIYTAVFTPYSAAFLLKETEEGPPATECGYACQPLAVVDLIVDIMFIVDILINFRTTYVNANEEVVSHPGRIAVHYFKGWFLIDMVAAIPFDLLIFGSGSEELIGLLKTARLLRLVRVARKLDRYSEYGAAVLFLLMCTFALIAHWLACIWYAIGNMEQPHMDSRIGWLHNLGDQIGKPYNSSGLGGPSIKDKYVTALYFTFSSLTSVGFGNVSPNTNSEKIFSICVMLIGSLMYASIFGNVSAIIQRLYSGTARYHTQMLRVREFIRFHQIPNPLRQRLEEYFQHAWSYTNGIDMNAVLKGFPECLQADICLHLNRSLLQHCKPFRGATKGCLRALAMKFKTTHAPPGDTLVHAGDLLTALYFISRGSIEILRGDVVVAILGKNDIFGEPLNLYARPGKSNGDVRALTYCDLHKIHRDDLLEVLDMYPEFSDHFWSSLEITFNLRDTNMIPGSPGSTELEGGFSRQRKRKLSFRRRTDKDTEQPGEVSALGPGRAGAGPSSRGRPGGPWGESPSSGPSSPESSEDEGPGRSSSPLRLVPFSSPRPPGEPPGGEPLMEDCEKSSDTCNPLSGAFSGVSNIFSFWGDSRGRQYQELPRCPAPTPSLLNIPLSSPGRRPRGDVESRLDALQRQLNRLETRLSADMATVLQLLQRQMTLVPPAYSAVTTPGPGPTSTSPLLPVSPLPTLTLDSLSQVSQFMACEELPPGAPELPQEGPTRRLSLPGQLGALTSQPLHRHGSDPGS
Assay: Inhibition of human ERG at 10 uM by radioligand displacement assay
property_label: inhibition at 10 µM (%)
Write the number in % without appending the unit.

IN: Entry under review: `c1ccc(-c2ccc(CNc3nc(-c4ccccn4)nnc3-c3ccccc3)cc2)cc1` . Reported inhibition at 10 µM?
OUT: 86

* * *

Target: Mu-type opioid receptor (Homo sapiens) (UniProt P35372)
Sequence (P35372 whole entry): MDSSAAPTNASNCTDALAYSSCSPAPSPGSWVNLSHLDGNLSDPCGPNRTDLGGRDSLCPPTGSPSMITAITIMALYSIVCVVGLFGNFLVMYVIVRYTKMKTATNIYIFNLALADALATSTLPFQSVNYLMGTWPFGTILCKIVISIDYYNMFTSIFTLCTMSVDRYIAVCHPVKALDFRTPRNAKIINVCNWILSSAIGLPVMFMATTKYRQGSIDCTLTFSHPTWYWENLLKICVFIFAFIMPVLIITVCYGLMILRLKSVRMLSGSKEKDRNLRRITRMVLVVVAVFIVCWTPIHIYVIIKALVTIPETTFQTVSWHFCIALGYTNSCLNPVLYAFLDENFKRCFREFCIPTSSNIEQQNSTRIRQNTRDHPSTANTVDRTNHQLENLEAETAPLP
Experiment: Inhibition of human mu opioid receptor at 10 uM by radioligand displacement assay
Calls of active or inactive are those of the source. No cut-off for these calls is given here.
property_label: inhibition

See these solved cases before continuing.
| structure_smiles_string | recorded_value |
| --- | --- |
| CCCCNC(=O)c1cc(-c2ccc(F)cc2)on1 | inactive |
| c1ccc(-c2ccc(CNc3nc(-c4ccccn4)nnc3-c3ccccc3)cc2)cc1 | 85% |
| O=C(NCCCCO)c1cc(-c2ccccc2)on1 | inactive |
| O=C(NCCCN1CCOCC1)c1cc(-c2ccccc2)on1 | inactive |
| O=C(NCCCn1ccnc1)c1cc(-c2ccccc2)on1 | inactive |

Field: next compound
IN: Return reported inhibition; argument: `O=C(NCC1CC1)c1cc(-c2ccccc2)on1`
OUT: inactive
